- measurement.description: Toxicity liver stage against HepG2, at 10uM
- Type: cell-based
- Parameters: test concentration 10 uM, cell line HepG2-A16-CD81EGFP
- test.context: human, HepG2-A16-CD81EGFP cells; read-out: INHIBITION
measure: cytotoxicity at 10 µM (%)
Numeric only. Scale: %

Examples from the recorded data:
INSERT INTO assay_data (compound, measure, quantitative_result) VALUES
  ('Cc1nccn1CC1CCCN1S(=O)(=O)Cc1ccccc1F (centres undefined)', 'cytotoxicity at 10 µM', -3.33),
  ('CC1CN(CC(=O)NC(=O)NCc2cccs2)CCN1CC(F)(F)F (centres undefined)', 'cytotoxicity at 10 µM', -0.402),
  ('O=C(CSC1CCCC1)N1CCN(c2ccc(-n3cncn3)nn2)CC1', 'cytotoxicity at 10 µM', 6.93),
  ('Cc1c(C(=O)N2CCC3(CCCNC3=O)C2)sc2nc[nH]c(=O)c12 (centres undefined)', 'cytotoxicity at 10 µM', -10.7),
  ('Cc1noc(C)c1CN1C(=O)[C@@H]2CC[C@H]1CN(Cc1cccnc1N)C2', 'cytotoxicity at 10 µM', 19.7);

# input # query: cytotoxicity at 10 µM of entry O=C(NC1CC1)c1nc2c(s1)CCCN2c1ccccc1
# output -157

# input # query: cytotoxicity at 10 µM of entry COC(=O)c1cc(C)nc(N2CCN(Cc3ccn(C(C)C)c3)CC2)n1
# output 9.77

# input # query: cytotoxicity at 10 µM of entry Cc1nn(C)c(C)c1NC(=O)c1cccc(CN2CC[C@H](O)C2)c1
# output 1.08

# input # query: cytotoxicity at 10 µM of entry CN1C(=O)COc2ccc(NC(=O)CCc3nc4cccnc4[nH]3)cc21
# output -1.23

# input # query: cytotoxicity at 10 µM of entry Oc1nc(N2CCOCC2)nc2c1CCN(Cc1cccc(F)c1)CC2
# output -8.08

# input # query: cytotoxicity at 10 µM of entry c1csc(CN2CCO[C@@H]3CN(C4CCOCC4)C[C@@H]3C2)c1
# output -157

---

- measurement.description: Toxicity liver stage against HepG2, at 10uM
- Assay type: cell-based
- Parameters: test concentration 10 uM, cell line HepG2-A16-CD81EGFP
- test.context: human, HepG2-A16-CD81EGFP cells; read-out: INHIBITION
// reported cytotoxicity at 10 µM per item
Numeric only. Scale: %

# input # query: cytotoxicity at 10 µM of entry CN(Cc1nc(-c2ccccc2)c[nH]1)C(=O)NCC(=O)NC(C)(C)C
# output 13.4

# input # query: cytotoxicity at 10 µM of entry O=C(c1ccsc1)N1CC(C(=O)N2CCOCC2)C2(CCOCC2)C1 (configuration not stated)
# output -1.1

# input # query: cytotoxicity at 10 µM of entry CC1CCN(CCNC(=O)c2ccn(-c3ccccc3)n2)CC1
# output -5.99

---

// reported cytotoxicity at 10 µM per item
- measurement.description: Toxicity liver stage against HepG2, at 10uM
- Type: cell-based
- Set-up: test concentration 10 uM, cell line HepG2-A16-CD81EGFP
- test.context: human, HepG2-A16-CD81EGFP cells; read-out: INHIBITION
Numeric only. Scale: %

INSERT INTO results (compound, units_text, quantitative_result) VALUES
  ('Cc1cc(C)c(CNC(=O)NCCc2cccnc2)c(=O)[nH]1', '%', -53.3),
  ('CC(NCc1cccs1)c1ccc(OCc2nccn2C)cc1 (centres undefined)', '%', -7.88);

# input # query: cytotoxicity at 10 µM of entry CSc1ccc(CN(C)Cc2noc(C(C)(C)C)n2)cc1
# output -8.58

# input # query: cytotoxicity at 10 µM of entry Cc1cc(C)nc(NCCC(=O)Nc2ccc(Cn3cncn3)cc2)n1
# output -2.82

# input # query: cytotoxicity at 10 µM of entry CN(Cc1ccc(N(C)C)cc1)C(=O)CSc1ccc(Br)cc1
# output 45.6

# input # query: cytotoxicity at 10 µM of entry Cc1nc(CN2CCCN(C(=O)CCc3ccco3)CC2)cs1
# output 0.386

# input # query: cytotoxicity at 10 µM of entry Cc1c(Br)c(C(F)F)nn1C(C)C(=O)O (centres undefined)
# output 4.51

# input # query: cytotoxicity at 10 µM of entry CCc1nnc(CN2CCc3cnc(C)nc3C2)o1
# output -4.04
